# study_system: porcine pancreatic elastase (PPE) (Sus scrofa)
# Construct: purchased United States Biochemical Corp., Cleveland, Ohio
# Sequence (P00772 27-266): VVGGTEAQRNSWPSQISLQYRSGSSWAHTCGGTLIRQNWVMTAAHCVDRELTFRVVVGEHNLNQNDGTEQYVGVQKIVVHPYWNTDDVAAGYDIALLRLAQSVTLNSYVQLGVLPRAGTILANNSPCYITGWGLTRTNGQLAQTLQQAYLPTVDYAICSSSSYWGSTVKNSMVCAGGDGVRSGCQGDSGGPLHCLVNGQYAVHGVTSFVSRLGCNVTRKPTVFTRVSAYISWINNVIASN
# experimental_protocol: Inactivation of PPE, incubation method
# Type: biochemical
# experimental_conditions: 0.1 M Hepes, 0.5 M NaCl, pH 7.5, 5-10% Me2SO, 25° C.; NI = no inhibition after 40 min of incubation
For each entry below, report its kobsd /(I) PPE value.
The reply should contain only the number, in M⁻¹ s⁻¹.

Lab note: need kobsd /(I) PPE for CSCCC(NC(=O)[C@H](C)NC(=O)[C@H](C)NC(=O)CCCCCNC(=S)Nc1ccc2c(c1)C(=O)OC21c2ccc(O)cc2Oc2cc(O)ccc21)P(=O)(Oc1ccccc1)Oc1ccccc1 (some centres unmarked) on porcine pancreatic elastase (PPE) (Sus scrofa), anyone have it?
13

Request: kobsd /(I) PPE, test system porcine pancreatic elastase (PPE) (Sus scrofa), entry CC(NC(=O)[C@H](C)NC(=O)[C@H](C)NC(=O)OCc1ccccc1)P(=O)(Oc1ccccc1)Oc1ccccc1 (stereo partly drawn) [Compound 6, Z-Ala-Ala-Ala^P (OPh)2, reference compound]
30

Enter reported kobsd /(I) PPE observed with porcine pancreatic elastase (PPE) (Sus scrofa) for CSCCC(NC(=O)[C@H](C)NC(=O)[C@H](C)NC(=O)OC(C)(C)C)P(=O)(Oc1ccccc1)Oc1ccccc1 (stereo partly drawn) [Compound 5, Boc-Ala-Ala-Met^P (OPh)2, reference compound]
3

I'm curious: which kobsd /(I) PPE was measured for CC(C)C[C@H](NC(=O)[C@H](Cc1ccccc1)NC(=O)CCCCCNC(=S)Nc1ccc2c(c1)C(=O)OC21c2ccc(O)cc2Oc2cc(O)ccc21)C(=O)NC(Cc1ccccc1)P(=O)(Oc1ccccc1)Oc1ccccc1 (some centres unmarked) tested on porcine pancreatic elastase (PPE) (Sus scrofa)?
16

Tell me reported kobsd /(I) PPE for CC(NC(=O)[C@H](C)NC(=O)[C@H](C)NC(=O)CCCCCNC(=S)Nc1ccc2c(c1)C(=O)OC21c2ccc(O)cc2Oc2cc(O)ccc21)P(=O)(Oc1ccccc1)Oc1ccccc1 (some centres unmarked) , tested with porcine pancreatic elastase (PPE) (Sus scrofa).
22
